Subject of test: HLA-A*02:01
Assay: IEDB peptide-MHC binding, purified MHC/direct/fluorescence; filed as Kd, often an IC50 or EC50 that approximates it; bounds were set here for any values at or beyond the usual limits of such assays
Measurement context: source organism: Human immunodeficiency virus 1
pKd: −log10 of the molar value.
Quantity name: pKd

Primary sequence | Quantity name | Recorded result
SLYNTVVTL | pKd | 7.70
SLFNAVVTL | pKd | 8.00
SLYNAVATL | pKd | 7.35
SLFNTVVTL | pKd | 7.49
SLFNTVATV | pKd | 7.60
SLYNAVVTL | pKd | 8.00
SVYNTVATL | pKd | 6.55
SLYNLVAVL | pKd | 6.14
SLYNTVSTL | pKd | 6.74
SLYNTISVL | pKd | 7.21
SLYNTITVL | pKd | 7.06
SLYNTIAIL | pKd | 6.30
